Test: Hygroscopicity test: weight gain of solid sample in humidity chamber at RH=80%
Assay type: physicochemical
Conditions: RH=80%, T=20±2° C., during 24 hrs
From the text: There are many methods of quantitative evaluation of hygroscopicity of solid products without measuring the hygroscopic point. The most widely used method is based on measuring the weight gain of a solid sample in a humidity chamber. […] This method was used for screening the hygroscopicity of several LDEE salts. It also provides a comparison of the hygroscopic properties of different solids by comparison of water absorption rates under the same conditions.
measured-attribute: weight gain in hygroscopicity test (%)
Your answer should be a plain number; it is taken to be in %.

Consider the worked cases shown below.
compound	weight gain in hygroscopicity test (%)
CCOC(=O)[C@@H](N)Cc1ccc(O)c(O)c1.O=C(O)c1ccccc1 [Example 8, LDEE Benzoate]	4.1
CCOC(=O)[C@@H](N)Cc1ccc(O)c(O)c1.CCOC(=O)[C@@H](N)Cc1ccc(O)c(O)c1.O.O.O=C(O)/C=C/C(=O)O [Example 25, LDEE Fumarate Dihydrate]	0.04
CC(=O)O.CCOC(=O)[C@@H](N)Cc1ccc(O)c(O)c1 [Example 2, LDEE Acetate]	6.7
CCOC(=O)[C@@H](N)Cc1ccc(O)c(O)c1.CCOC(=O)[C@@H](N)Cc1ccc(O)c(O)c1.O.O.O=C(O)CCC(=O)O [Example 23, LDEE Succinate Dihydrate]	0.27
CCOC(=O)C(N)Cc1ccc(O)c(O)c1.O=C(O)C(O)C(O)C(=O)O (mixture of isomers) [Example 7, LDEE (LD)Tartrate]	6.3

From here, focus on the item given below.
// query # lookup: weight gain in hygroscopicity test of CCOC(=O)[C@@H](N)Cc1ccc(O)c(O)c1.O=C(O)C(O)C(O)C(=O)O [Example 4, LDEE L(+)Tartrate]
// result 7.1
